# Target Or System: Rat SERT (Rattus norvegicus, UniProt P31652)
# Sequence (P31652 whole entry): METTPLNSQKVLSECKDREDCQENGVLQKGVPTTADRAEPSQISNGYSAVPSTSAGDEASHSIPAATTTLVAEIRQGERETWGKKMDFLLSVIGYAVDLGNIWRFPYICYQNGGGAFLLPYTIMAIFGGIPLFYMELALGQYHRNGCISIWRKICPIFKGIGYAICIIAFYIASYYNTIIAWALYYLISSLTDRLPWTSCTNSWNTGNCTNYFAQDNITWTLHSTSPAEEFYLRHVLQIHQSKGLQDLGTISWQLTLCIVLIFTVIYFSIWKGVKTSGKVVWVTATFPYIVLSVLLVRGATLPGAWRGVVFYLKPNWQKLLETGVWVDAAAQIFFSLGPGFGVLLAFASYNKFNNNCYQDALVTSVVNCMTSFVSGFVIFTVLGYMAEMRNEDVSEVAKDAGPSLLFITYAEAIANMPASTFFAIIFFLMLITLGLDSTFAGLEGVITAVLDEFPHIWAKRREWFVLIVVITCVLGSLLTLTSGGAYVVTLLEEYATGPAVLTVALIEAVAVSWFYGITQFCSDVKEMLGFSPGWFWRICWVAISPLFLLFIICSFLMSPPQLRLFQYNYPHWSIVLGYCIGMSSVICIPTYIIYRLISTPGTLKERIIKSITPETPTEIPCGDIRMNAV
# Method Notes: Rat brain SERT binding, [3H]-Citalopram displacement on rat brain membranes
# Test Parameters: Rat SERT Ki (nM), rat brain membranes without cerebellum; 0.6 nM [3H]-Citalopram; 60 min at 25° C.
Field: label. Allowed values: 1 (Ki < 100 nM) or 0 (Ki >= 100 nM).

Example entries and their recorded answers appear below.
>>> group_label("CCN(CC)CCCOc1cc2c(cn1)C(c1ccccc1)CNC2 (stereo not drawn)")
0
>>> group_label("CN1Cc2cc(OCCCN3CCCCC3)ncc2C(c2ccc(Cl)c(Cl)c2)C1 (single isomer, unassigned; enantiomer b) [Example 39]")
0

Could you please tell me whether Ki recorded for Clc1cccc(C2CNCc3cc(OCCCN4CCCCC4)ncc32)c1 (stereo not drawn) is less than 100 nM? 0

Could you please tell me whether Ki recorded for CN1Cc2cc(OCCCN3CCCCC3)ncc2C(c2ccc(Cl)c(Cl)c2)C1 (single isomer, unassigned; enantiomer a) [Example 38] is less than 100 nM? 1

Could you please tell me whether Ki recorded for COc1ccc(C2CNCc3cc(OCCCN4CCCCC4)ncc32)cc1 (stereo not drawn) is less than 100 nM? 0

Could you please tell me whether Ki recorded for COc1ccc(C2CNCc3cc(OCCC4CCCN4C)ncc32)cc1 (stereo not drawn) is less than 100 nM? 1

Could you please tell me whether Ki recorded for Clc1ccc(C2CNCc3cc(OCCCN4CCOCC4)ncc32)cc1Cl (stereo not drawn) is less than 100 nM? 1

Could you please tell me whether Ki recorded for Clc1ccc(C2CNCc3cc(OCCCN4CCCCC4)ncc32)cc1Cl (single isomer, unassigned; enantiomer b) is less than 100 nM? 1

Could you please tell me whether Ki recorded for COc1ccc(C2CN(C)Cc3cc(OCCCN4CCC(F)(F)CC4)ncc32)cc1 (stereo not drawn) is less than 100 nM? 0
